Tested on: MT4
Assay overview: Cytotoxicity against human MT4 cells assessed as inhibition of cell proliferation
Type: cell-based
Listed below: CC50 values for each entry.
Property: CC50

[[record]]
compound = "CCOC(=O)[C@H](C)NP(=O)(OCCOCn1cnc2c(=O)[nH]c(N)nc21)Oc1cccc2ccccc12 (some centres undefined)"
property = "CC50"
reported = "> 150 µM"

[[record]]
compound = "COC(=O)[C@H](C)NP(=O)(OCCOCn1cnc2c(=O)[nH]c(N)nc21)Oc1cccc2ccccc12 (some centres undefined)"
property = "CC50"
reported = "> 150 µM"

[[record]]
compound = "COC(=O)[C@@H](NP(=O)(OCCOCn1cnc2c(=O)[nH]c(/N=C/N(C)C)nc21)Oc1cccc2ccccc12)C(C)C (some centres undefined)"
property = "CC50"
reported = "> 150 µM"

[[record]]
compound = "CC(C)C[C@H](NP(=O)(OCCOCn1cnc2c(=O)[nH]c(N)nc21)Oc1ccccc1)C(=O)OCc1ccccc1 (some centres undefined)"
property = "CC50"
reported = "17 µM"

